system: MA (unmyristoylated matrix) (HIV-1, UniProt P12493 2-132)
assay_remarks: fluorescence anisotropy
reported_metric: Kd (µM)
Reply numerically in µM, unit not repeated.

Return value of Kd for input GGACAGGAAUUAAUAGUAGCUGUCC (structured_RNA) [FITC-Sel25] , no commentary.
1.03
